Test: Animal biodistribution (in vivo, i.v. injection)
Details: rats, 60 min p.i.
# note: exactly 3 is not below, so it is condition not met; use condition met for Heart/Lung Counts/Gram ratio strictly under it

Does the reported Heart/Lung Counts/Gram ratio of the following molecule sit strictly below 3? O=[N][99Tc]1([Cl])([Cl])([Cl])[N]2C=CC=c3ccc4c(c32)[N]1C=CC=4 [[^99 Tc(NO)(1,10 phen)Cl3]°]
condition met

Another molecule to look at: CC(=O)C=C(C)[O][99Tc-]([Cl])([Cl])([Cl])[N]=O [[^99 Tc(NO)Cl3 (acac)]^-]
condition met

What about this molecule? O=[N][Tc+][Cl].[C-]#[N+]C(C)(C)C.[C-]#[N+]C(C)(C)C.[C-]#[N+]C(C)(C)C.[C-]#[N+]C(C)(C)C [[^99 Tc(NO)Cl(t-BuCN)4]^+]
condition not met

Next molecule: "CP(C)CCP(C)C.CP(C)CCP(C)C.N#[O+].[99Tc+].[Cl-].[Cl-]"
condition met

Moving on to O=[N][99Tc]([Cl])([Cl])[Cl].c1ccc(-c2ccccn2)nc1 [[^99 Tc(NO)Cl3 (Bipy)]]
condition not met
